Kindly supply the reported GI50 values for the records listed here.
Tested on: SK-MEL-5
measurement-notes: Growth inhibition of human SK-MEL-5 cells measured after 48 hrs by SRB assay
Type: functional
Give bare numbers, in µM.

1) Cc1ccc(NC(=O)c2ccc(CN3CCN(C)CC3)cc2)cc1Nc1nccc(-c2cccnc2)n1 [IMATINIB] | 12.1
2) COc1cccc2nc(Nc3cccc(NC(=O)c4ccc(N5CCN(C)CC5)c(C(F)(F)F)c4)c3)ccc12 | 1.52
3) CCN1CCN(c2cc(C(=O)Nc3cccc(Nc4ccc5c(OC)cccc5n4)c3)cc(C(F)(F)F)c2)CC1 | 1.55

Here is the next item to consider.
Recorded GI50 for COc1cc2cc(Oc3ccc(NC(=O)c4cc(C(F)(F)F)cc(C(F)(F)F)c4)cc3)c(C)nc2cc1OC , please? 2.76

meta.source: ChEMBL document CHEMBL4706583
